- System: C. albicans sp3903
- condition-info: sp3903, 48 h
No end group written: not given here.

substance	operator-symbol	MFC (µM)
RIGRWLLWRGIRRIGRWL-NH2 [RW3]	=	8
KIGKFLLFKGIKKIGKFL-NH2 [KF3]	=	32
KIGKVL-NH2 [KV]	>	64
RIGRVLLVRGIRRIGRVL-NH2 [RV3]	=	32
KIGKVLLVKGIKKIGKVL-NH2 [KV3]	=	64
KIGKWLLWKGIKKIGKWL-NH2 [KW3]	=	8
KIGKVLLVKGIK-NH2 [KV2]	>	64
RIGRFLLFRGIRRIGRFL-NH2 [RF3]	=	8

###

- Tested on: C. albicans 14936
- condition-info: 14936, 48 h
No end group written: not given here.
property-name: MFC

substance	experimental-value
KIGKVLLVKGIK-NH2 [KV2]	>64 µM
KIGKVL-NH2 [KV]	>64 µM
KIGKVLLVKGIKKIGKVL-NH2 [KV3]	>64 µM

The measurements presented in this section are drawn from paper PMC7554340.
